# fold difference in affinity vs original per record follows
Target: binding partner of C5A (XPA23)
Assay: Biacore K-off
I only need the number, in fold, no unit after it.

Some solved cases for reference:
C5A (XPA23) VL S53A (antibody, V domains shown) VH: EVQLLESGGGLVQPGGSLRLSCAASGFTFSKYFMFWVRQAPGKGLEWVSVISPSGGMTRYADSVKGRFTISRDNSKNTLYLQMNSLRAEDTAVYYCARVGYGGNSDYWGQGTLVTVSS VL: DIQMTQSPSSVSASVGDRLTIICRASQDINRWLAWYQQTPGNAPKLLIHSATALQSGVPSRFSGSGSGTDFTLTINSLQPEDFATYYCQQADSFPLTFGGGTKVEIK :: 1.07
C5A (XPA23) VL A91L (antibody, V domains shown) VH: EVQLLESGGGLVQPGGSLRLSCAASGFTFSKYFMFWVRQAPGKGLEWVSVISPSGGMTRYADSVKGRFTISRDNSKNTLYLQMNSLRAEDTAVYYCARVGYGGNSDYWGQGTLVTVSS VL: DIQMTQSPSSVSASVGDRLTIICRASQDINRWLAWYQQTPGNAPKLLIHSATSLQSGVPSRFSGSGSGTDFTLTINSLQPEDFATYYCQQLDSFPLTFGGGTKVEIK :: 0.39

Here's the next entry for you.
Req: What measured fold difference in affinity vs original goes with C5A (XPA23) VH Y32G (antibody, V domains shown) VH: EVQLLESGGGLVQPGGSLRLSCAASGFTFSKGFMFWVRQAPGKGLEWVSVISPSGGMTRYADSVKGRFTISRDNSKNTLYLQMNSLRAEDTAVYYCARVGYGGNSDYWGQGTLVTVSS VL: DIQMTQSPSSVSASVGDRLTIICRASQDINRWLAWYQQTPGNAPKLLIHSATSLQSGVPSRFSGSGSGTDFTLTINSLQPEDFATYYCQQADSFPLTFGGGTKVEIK ?
Resp: 1
